These measurements were taken from paper PMC9646721.

What pKd was measured for each of the following?
Molecular target: PR10-12
Test: ANS displacement assay
Assay type: binding, Papaver somniferum
Settings: from average IC50 and PR10-ANS Kd, competitive inhibition assumed, read-out: Estimated Kd
Scale: pKd equals -log10([C]), with [C] in mol/L.

[Q] Need pKd, item "COc1ccc(Cc2nccc3cc(OC)c(OC)cc23)cc1OC"
[A] 3.81

[Q] Need pKd, item "COC1=CC=C2[C@H]3Cc4ccc(OC)c5c4[C@@]2(CCN3C)[C@H]1O5"
[A] 3.36

[Q] Need pKd, item "COc1ccc2c3c1O[C@H]1[C@@H](O)C=C[C@H]4[C@@H](C2)N(C)CC[C@@]341"
[A] 2.84
